System: Escherichia coli TOP10
Assay: shrunken log2 fold change of peptide-encoding DNA abundance (4.5 h post-induction vs induction); higher = less antimicrobial activity (less host growth inhibition)
Settings: time post-induction: 4.5 h; library: site-saturation at positions 5, 18, 19, 20
Would you mind labelling by shrunken log2 fold change? At or over 0.005 is 1.0, under is 0.0.

{"columns": ["residue_sequence", "class"],
 "data": [
  ["RRIRPRPPRLPRPRPRPDMSPRP", 0.0],
  ["RRIRERPPRLPRPRPRPDVYPRP", 0.0],
  ["RRIRHRPPRLPRPRPRPVGWPRP", 1.0],
  ["RRIRKRPPRLPRPRPRPHPKPRP", 1.0],
  ["RRIRRRPPRLPRPRPRPCWHPRP", 0.0],
  ["RRIRPRPPRLPRPRPRPFNWPRP", 0.0],
  ["RRIRCRPPRLPRPRPRPLPPPRP", 1.0],
  ["RRIRVRPPRLPRPRPRPESSPRP", 1.0],
  ["RRIRDRPPRLPRPRPRPISHPRP", 1.0],
  ["RRIRRRPPRLPRPRPRPPQLPRP", 1.0],
  ["RRIRWRPPRLPRPRPRPSCNPRP", 0.0],
  ["RRIRSRPPRLPRPRPRPLVYPRP", 0.0],
  ["RRIRHRPPRLPRPRPRPLMKPRP", 0.0],
  ["RRIRYRPPRLPRPRPRPFEAPRP", 0.0],
  ["RRIRNRPPRLPRPRPRPKQAPRP", 0.0]
]}

----------
Tested on: Escherichia coli TOP10
Test: shrunken log2 fold change of peptide-encoding DNA abundance (4.5 h post-induction vs induction); higher = less antimicrobial activity (less host growth inhibition)
Settings: time post-induction: 4.5 h; library: site-saturation at positions 5, 18, 19, 20
Classify on shrunken log2 fold change using interval 1 (below -0.1), interval 2 (-0.1 to below 0.06), interval 3 (0.06 or more)

{"columns": ["residue_sequence", "test_system", "class"],
 "data": [
  ["RRIRPRPPRLPRPRPRPAFHPRP", "Escherichia coli TOP10", "interval 3"],
  ["RRIRYRPPRLPRPRPRPHELPRP", "Escherichia coli TOP10", "interval 2"],
  ["RRIRYRPPRLPRPRPRPEWIPRP", "Escherichia coli TOP10", "interval 2"],
  ["RRIRKRPPRLPRPRPRPFVYPRP", "Escherichia coli TOP10", "interval 2"],
  ["RRIRQRPPRLPRPRPRPLYHPRP", "Escherichia coli TOP10", "interval 1"],
  ["RRIRYRPPRLPRPRPRPFGCPRP", "Escherichia coli TOP10", "interval 1"],
  ["RRIRQRPPRLPRPRPRPVDCPRP", "Escherichia coli TOP10", "interval 2"],
  ["RRIRCRPPRLPRPRPRPGDFPRP", "Escherichia coli TOP10", "interval 2"],
  ["RRIRIRPPRLPRPRPRPNARPRP", "Escherichia coli TOP10", "interval 3"],
  ["RRIRLRPPRLPRPRPRPIGTPRP", "Escherichia coli TOP10", "interval 2"],
  ["RRIRCRPPRLPRPRPRPGDNPRP", "Escherichia coli TOP10", "interval 1"],
  ["RRIRYRPPRLPRPRPRPTSNPRP", "Escherichia coli TOP10", "interval 1"],
  ["RRIRWRPPRLPRPRPRPIMVPRP", "Escherichia coli TOP10", "interval 2"],
  ["RRIRVRPPRLPRPRPRPKYVPRP", "Escherichia coli TOP10", "interval 1"],
  ["RRIRFRPPRLPRPRPRPAIAPRP", "Escherichia coli TOP10", "interval 2"],
  ["RRIRVRPPRLPRPRPRPMIAPRP", "Escherichia coli TOP10", "interval 3"],
  ["RRIRERPPRLPRPRPRPTIDPRP", "Escherichia coli TOP10", "interval 1"],
  ["RRIRKRPPRLPRPRPRPLLTPRP", "Escherichia coli TOP10", "interval 3"],
  ["RRIRRRPPRLPRPRPRPKHYPRP", "Escherichia coli TOP10", "interval 3"],
  ["RRIRGRPPRLPRPRPRPNRIPRP", "Escherichia coli TOP10", "interval 3"],
  ["RRIRYRPPRLPRPRPRPTMFPRP", "Escherichia coli TOP10", "interval 1"],
  ["RRIRIRPPRLPRPRPRPYVRPRP", "Escherichia coli TOP10", "interval 1"],
  ["RRIRARPPRLPRPRPRPKHEPRP", "Escherichia coli TOP10", "interval 3"],
  ["RRIRPRPPRLPRPRPRPHHFPRP", "Escherichia coli TOP10", "interval 2"],
  ["RRIRYRPPRLPRPRPRPDVWPRP", "Escherichia coli TOP10", "interval 1"],
  ["RRIRSRPPRLPRPRPRPYGYPRP", "Escherichia coli TOP10", "interval 2"],
  ["RRIRDRPPRLPRPRPRPSQWPRP", "Escherichia coli TOP10", "interval 1"],
  ["RRIRGRPPRLPRPRPRPIRDPRP", "Escherichia coli TOP10", "interval 2"],
  ["RRIRARPPRLPRPRPRPRLGPRP", "Escherichia coli TOP10", "interval 3"],
  ["RRIRERPPRLPRPRPRPYTHPRP", "Escherichia coli TOP10", "interval 1"],
  ["RRIRSRPPRLPRPRPRPYCNPRP", "Escherichia coli TOP10", "interval 1"],
  ["RRIRKRPPRLPRPRPRPYQGPRP", "Escherichia coli TOP10", "interval 1"],
  ["RRIRMRPPRLPRPRPRPIGCPRP", "Escherichia coli TOP10", "interval 3"],
  ["RRIRRRPPRLPRPRPRPNRKPRP", "Escherichia coli TOP10", "interval 3"],
  ["RRIRIRPPRLPRPRPRPPSFPRP", "Escherichia coli TOP10", "interval 1"],
  ["RRIRERPPRLPRPRPRPMDAPRP", "Escherichia coli TOP10", "interval 2"],
  ["RRIRVRPPRLPRPRPRPPSAPRP", "Escherichia coli TOP10", "interval 3"],
  ["RRIRDRPPRLPRPRPRPDGQPRP", "Escherichia coli TOP10", "interval 3"],
  ["RRIRERPPRLPRPRPRPAEGPRP", "Escherichia coli TOP10", "interval 1"],
  ["RRIRQRPPRLPRPRPRPDITPRP", "Escherichia coli TOP10", "interval 2"],
  ["RRIRPRPPRLPRPRPRPLKMPRP", "Escherichia coli TOP10", "interval 1"],
  ["RRIRIRPPRLPRPRPRPYDNPRP", "Escherichia coli TOP10", "interval 2"],
  ["RRIRHRPPRLPRPRPRPQKWPRP", "Escherichia coli TOP10", "interval 1"],
  ["RRIRDRPPRLPRPRPRPHIFPRP", "Escherichia coli TOP10", "interval 1"],
  ["RRIRFRPPRLPRPRPRPKHCPRP", "Escherichia coli TOP10", "interval 2"],
  ["RRIRGRPPRLPRPRPRPQKEPRP", "Escherichia coli TOP10", "interval 3"],
  ["RRIRCRPPRLPRPRPRPPVTPRP", "Escherichia coli TOP10", "interval 3"],
  ["RRIRDRPPRLPRPRPRPWPQPRP", "Escherichia coli TOP10", "interval 1"],
  ["RRIRFRPPRLPRPRPRPSYLPRP", "Escherichia coli TOP10", "interval 1"],
  ["RRIRTRPPRLPRPRPRPEWYPRP", "Escherichia coli TOP10", "interval 3"],
  ["RRIRCRPPRLPRPRPRPEPSPRP", "Escherichia coli TOP10", "interval 3"],
  ["RRIRVRPPRLPRPRPRPNQKPRP", "Escherichia coli TOP10", "interval 1"],
  ["RRIRCRPPRLPRPRPRPAGWPRP", "Escherichia coli TOP10", "interval 3"],
  ["RRIRARPPRLPRPRPRPHKAPRP", "Escherichia coli TOP10", "interval 3"],
  ["RRIRQRPPRLPRPRPRPWMTPRP", "Escherichia coli TOP10", "interval 2"],
  ["RRIRPRPPRLPRPRPRPEKHPRP", "Escherichia coli TOP10", "interval 3"],
  ["RRIRFRPPRLPRPRPRPMFTPRP", "Escherichia coli TOP10", "interval 1"],
  ["RRIRPRPPRLPRPRPRPCIIPRP", "Escherichia coli TOP10", "interval 1"],
  ["RRIRHRPPRLPRPRPRPVDQPRP", "Escherichia coli TOP10", "interval 2"],
  ["RRIRDRPPRLPRPRPRPYSFPRP", "Escherichia coli TOP10", "interval 2"],
  ["RRIRTRPPRLPRPRPRPASGPRP", "Escherichia coli TOP10", "interval 3"],
  ["RRIRQRPPRLPRPRPRPQLQPRP", "Escherichia coli TOP10", "interval 3"]
]}

----------
Tested on: Escherichia coli TOP10;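 note: peptides expressed intracellularly from a pBAD plasmid library in pooled LB shake-flask culture, induced with 0.3% L-arabinose, DNA abundance read by NGS, three biological replicates, DESeq2 with apeglm shrinkage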
Experiment: shrunken log2 fold change of peptide-encoding DNA abundance (4.5 h post-induction vs induction); higher = less antimicrobial activity (less host growth inhibition)
Conditions: time post-induction: 4.5 h; library: site-saturation at positions 5, 18, 19, 20
Would you mind labelling by shrunken log2 fold change? At or over -0.1 is true (1), under is false (0).

{"columns": ["residue_sequence", "class"],
 "data": [
  ["RRIRLRPPRLPRPRPRPAPGPRP", "true (1)"],
  ["RRIRDRPPRLPRPRPRPTNKPRP", "true (1)"],
  ["RRIRPRPPRLPRPRPRPHARPRP", "true (1)"],
  ["RRIRSRPPRLPRPRPRPNNCPRP", "false (0)"],
  ["RRIRARPPRLPRPRPRPKPGPRP", "true (1)"],
  ["RRIRVRPPRLPRPRPRPKIMPRP", "false (0)"],
  ["RRIRHRPPRLPRPRPRPDINPRP", "true (1)"],
  ["RRIRFRPPRLPRPRPRPNPDPRP", "true (1)"],
  ["RRIRFRPPRLPRPRPRPFPAPRP", "false (0)"],
  ["RRIRVRPPRLPRPRPRPYQHPRP", "false (0)"],
  ["RRIRHRPPRLPRPRPRPMNNPRP", "false (0)"],
  ["RRIRCRPPRLPRPRPRPYKCPRP", "false (0)"],
  ["RRIRTRPPRLPRPRPRPKWIPRP", "false (0)"],
  ["RRIRSRPPRLPRPRPRPGFVPRP", "true (1)"],
  ["RRIRFRPPRLPRPRPRPFQQPRP", "false (0)"],
  ["RRIRGRPPRLPRPRPRPYSYPRP", "true (1)"],
  ["RRIRQRPPRLPRPRPRPHGMPRP", "true (1)"],
  ["RRIRKRPPRLPRPRPRPTWMPRP", "true (1)"],
  ["RRIRARPPRLPRPRPRPQYRPRP", "false (0)"],
  ["RRIRARPPRLPRPRPRPWGTPRP", "true (1)"],
  ["RRIRNRPPRLPRPRPRPGCVPRP", "true (1)"],
  ["RRIRCRPPRLPRPRPRPDPQPRP", "true (1)"],
  ["RRIRLRPPRLPRPRPRPKPEPRP", "true (1)"],
  ["RRIRYRPPRLPRPRPRPSPFPRP", "true (1)"],
  ["RRIRKRPPRLPRPRPRPIEEPRP", "true (1)"],
  ["RRIRVRPPRLPRPRPRPMRAPRP", "true (1)"],
  ["RRIRQRPPRLPRPRPRPCTAPRP", "true (1)"],
  ["RRIRTRPPRLPRPRPRPKVPPRP", "true (1)"],
  ["RRIRGRPPRLPRPRPRPCETPRP", "true (1)"],
  ["RRIRCRPPRLPRPRPRPAEDPRP", "true (1)"],
  ["RRIRFRPPRLPRPRPRPWTAPRP", "false (0)"],
  ["RRIRMRPPRLPRPRPRPAIEPRP", "true (1)"]
]}
